# Test system: Caco-2 monolayer
# assaySummary: Caco-2 Permeability Assay
# Format: in vitro ADME, human
# measurementContext: Caco-2 monolayer
# key: entry, value: Caco-2 Papp
Give the value in ×10⁻⁶ cm/s but do not write ×10⁻⁶ cm/s after it.

Recorded Caco-2 Papp, per entry:
COc1ccc(N(C)C(=O)OCSc2nc(=O)c3[nH]ccc3n2CCOC(C)C)cc1 8.53
CC(C)OCCn1c(=S)[nH]c(=O)c2c1ccn2COC(=O)CCCCNC(=O)[C@@H](N)CCc1ccccc1.O=C(O)C(F)(F)F 0.302
CC(C)C[C@@H](NC(=O)OC(C)(C)C)C(=O)OCCCCC(=O)OCn1c(=O)c2c(ccn2COC(=O)CCCCOC(=O)[C@@H](CC(C)C)NC(=O)OC(C)(C)C)n(CCOC(C)C)c1=S 4.99
CC(C)OCCn1c(SCOC(=O)OCCOCCN)nc(=O)c2c1ccn2COC(=O)OCCOCCN.O=C(O)C(F)(F)F.O=C(O)C(F)(F)F 1.18
CC(C)OCCn1c(=S)[nH]c(=O)c2c1ccn2COC(=O)CCCCNC(=O)[C@@H]1CCC(=O)N1C(=O)OCc1ccccc1.O=C(O)C(F)(F)F 0.903

Q) For `CC(C)OCCn1c(=S)[nH]c(=O)c2c1ccn2C(=O)NCCOCCNC(=O)[C@H](NC(=O)OC(C)(C)C)C(C)C` , what is its reported Caco-2 Papp?
A) 0.0903

Q) Item `CC(C)OCCn1c(SCOC(=O)N(C)CCOCCNC(=O)[C@H](N)C(C)C)nc(=O)c2[nH]ccc21.O=C(O)C(F)(F)F` has what recorded Caco-2 Papp?
A) 3.65

Q) Fill in: Caco-2 Papp of `CCCCN(C)C(=O)OCSc1nc(=O)c2c(ccn2COC(=O)N(C)CCCC)n1CCOC(C)C` is ___
A) 28.7

Q) Quick check: Caco-2 Papp of `CC(C)OCCn1c(=S)[nH]c(=O)c2c1ccn2COC(=O)CCNC(=O)[C@@H]1CCC(=O)N1C(=O)OCc1ccccc1.O=C(O)C(F)(F)F` ?
A) 0.368

Q) Item under review: `CCN(C)C(=O)OCSc1nc(=O)c2c(ccn2COC(=O)N(C)CC)n1CCOC(C)C.O=C(O)C(F)(F)F` . Reported Caco-2 Papp?
A) 10.9

Q) Returns the measured Caco-2 Papp for the input molecule. Input: `CC(C)OCCn1c(SCOC(=O)CCCOC(=O)[C@H](NC(=O)OC(C)(C)C)C(C)C)nc(=O)c2c1ccn2COC(=O)CCCOC(=O)[C@H](NC(=O)OC(C)(C)C)C(C)C`
A) 1.5

Q) Field request: Caco-2 Papp | item: `CSCC[C@H](N)C(=O)NCCC(=O)OCn1ccc2c1c(=O)[nH]c(=S)n2CCOC(C)C.O=C(O)C(F)(F)F`
A) 0.147
